Data origin, for the record: patent US8263598B2

Target: B1R receptor of rats (rB1R) (Rattus norvegicus, UniProt P97583)
Construct: host or cells: CHO K1 cells
Sequence (P97583 whole entry): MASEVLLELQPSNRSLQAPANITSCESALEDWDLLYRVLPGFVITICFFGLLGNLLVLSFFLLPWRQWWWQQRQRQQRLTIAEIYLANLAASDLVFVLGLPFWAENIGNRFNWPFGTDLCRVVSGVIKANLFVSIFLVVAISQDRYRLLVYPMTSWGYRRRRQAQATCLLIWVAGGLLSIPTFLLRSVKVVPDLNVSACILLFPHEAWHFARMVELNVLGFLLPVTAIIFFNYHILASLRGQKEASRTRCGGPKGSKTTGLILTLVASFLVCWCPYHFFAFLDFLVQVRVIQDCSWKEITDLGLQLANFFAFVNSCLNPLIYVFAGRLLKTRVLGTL
Test: FLIPR Ca2+ assay on rat bradykinin 1 receptor (CHO K1 rB1R cells)
Format: cell-based
Details: test substance 10 μM; CHO K1 cells with B1R gene of rats; agonist Des-Arg9-bradykinin 100 nM; compared to maximum achievable inhibition
MEASURED PROPERTY: inhibition at 10 µM (%)
Just the number please, in %, no unit attached.

# count of solved cases: 3
q: Fill in the blank: the reported inhibition at 10 µM of COc1cc(C)c(S(=O)(=O)N(CCOCC(=O)N2CCn3cccc3C2c2cccnc2)CC(C)C)c(C)c1C (stereo not drawn) is ____.
a: 98

q: So what's the measured inhibition at 10 µM for this one? CCC1c2ccc(CN(C)C)n2CCN1C(=O)COCCN(C)S(=O)(=O)c1c(C)cc(C)cc1C (stereo not drawn)
a: 103

q: Entry COc1cc(C)c(S(=O)(=O)N(CCOCC(=O)N2CCn3cccc3C2c2ccc(Cl)nc2)Cc2ccccc2)c(C)c1C (stereo not drawn) : reported inhibition at 10 µM = ?
a: 91

Moving on to the next molecule.
q: Requested field: inhibition at 10 µM. Item: O=C(CC(NS(=O)(=O)c1ccc2ccccc2c1)c1ccccc1)N1CCn2c(ccc2-c2cccnc2)C1 (stereo not drawn)
a: 70

----------
Biological target: human B1R receptor (hB1R) (Homo sapiens, UniProt P46663)
Construct: host or cells: CHO K1 cells
Sequence (P46663 1-353): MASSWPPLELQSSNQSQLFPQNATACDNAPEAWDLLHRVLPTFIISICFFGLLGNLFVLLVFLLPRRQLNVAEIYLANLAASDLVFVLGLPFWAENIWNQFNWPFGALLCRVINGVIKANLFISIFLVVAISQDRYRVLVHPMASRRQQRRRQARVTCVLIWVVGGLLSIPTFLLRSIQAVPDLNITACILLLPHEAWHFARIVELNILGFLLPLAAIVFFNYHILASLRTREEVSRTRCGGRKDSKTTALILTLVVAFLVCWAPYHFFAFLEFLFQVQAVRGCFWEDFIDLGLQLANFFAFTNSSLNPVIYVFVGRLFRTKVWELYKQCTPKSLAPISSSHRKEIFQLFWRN
Assay: FLIPR Ca2+ assay on human bradykinin 1 receptor (CHO K1 hB1R cells)
Format: cell-based
Settings: test substance 10 μM; CHO K1 cells with human B1R gene; agonist Lys-Des-Arg9-bradykinin 0.5 nM; compared to maximum achievable inhibition
// values below are reported inhibition at 10 µM
// units = %; emit number, no label

These recorded examples may help you get a feel for the data.
q: inhibition at 10 µM lookup needed for COc1c(C)cc(S(=O)(=O)N(C)CCOCC(=O)N2CCn3c(CN(C)C)ccc3C2CCc2ccccc2)c(C)c1C (stereo not shown) [Example 110] , thanks.
a: 103

q: State the recorded inhibition at 10 µM for this entry: CCCC1c2cccn2CCN1C(=O)COCCN(C)S(=O)(=O)c1c(C)cc(C)cc1C (stereo not shown) [Example 146]
a: 102

q: inhibition at 10 µM for COc1cc(C)c(S(=O)(=O)N(CCOCC(=O)N2CCn3c(CN(C)C)ccc3C2CCc2ccccc2)CC(C)C)c(C)c1C (stereo not shown) [Example 96] ?
a: 102

Here is another compound to look at.
q: Requested field: inhibition at 10 µM. Item: Cc1cc(C)c(S(=O)(=O)N(C)CCOCC(=O)N2CCn3cccc3C2c2ccc(F)c(F)c2)c(C)c1 (stereo not shown) [Example 71]
a: 95

----------
Target: human B1R receptor (hB1R) (Homo sapiens, UniProt P46663)
Construct: host or cells: CHO K1 cells
Assay: FLIPR Ca2+ assay on human bradykinin 1 receptor (CHO K1 hB1R cells)
Type: cell-based
Settings: test substance 10 μM; CHO K1 cells with human B1R gene; agonist Lys-Des-Arg9-bradykinin 0.5 nM; compared to maximum achievable inhibition
// reported inhibition at 10 µM for each item listed
State the answer as a number, implicitly in %.

Example entries begin here.
q: // query inhibition at 10 µM value for entry COc1cc(C)c(S(=O)(=O)N(C)CCOCC(=O)N2CCn3cccc3C2c2ccc(F)c(F)c2)c(C)c1 (stereo not shown) [Example 57]
a: 102

q: For the molecule COc1cc(C)c(S(=O)(=O)N(C)CCOCC(=O)N2CCn3c(CN4CCCC4)ccc3C2c2ccccc2)c(C)c1 (stereo not shown) [Example 15] , what inhibition at 10 µM is on record?
a: 101

q: Could you tell me which inhibition at 10 µM is on file for COc1cc(C)c(S(=O)(=O)N(C)CCOCC(=O)N2CCn3c(CN4CCOCC4)ccc3C2c2ccccc2)c(C)c1C (stereo not shown) [Example 150] ?
a: 103

q: For COc1cc(C)c(S(=O)(=O)N(CCOCC(=O)N2CCn3c(CN(C)C)ccc3C2c2ccccc2)Cc2ccccc2)c(C)c1 (stereo not shown) [Example 126] , what is its reported inhibition at 10 µM?
a: 101

Continuing:
q: For the molecule Cc1cc(C)c(S(=O)(=O)N(C)CCOCC(=O)N2CCn3cccc3C2c2ccc(C(F)(F)F)cc2F)c(C)c1 (stereo not shown) [Example 77] , what inhibition at 10 µM is on record?
a: 71

q: # inhibition at 10 µM lookup, item COc1cc(C)c(S(=O)(=O)N(C)CCOCC(=O)N2CCn3c(Cc4cccnc4)ccc3C2)c(C)c1 [Example 174]
a: 100

q: What inhibition at 10 µM value was documented for this molecule, COc1cc(C)c(S(=O)(=O)N(C)CCOCC(=O)N2CCn3c(nc(CN4CCCCC4)c3Cl)C2)c(C)c1 [Example 6] ?
a: 100

----------
Target: B1R receptor of rats (rB1R) (Rattus norvegicus, UniProt P97583)
Construct: host or cells: CHO K1 cells
Assay: FLIPR Ca2+ assay on rat bradykinin 1 receptor (CHO K1 rB1R cells)
Format: cell-based
Details: test substance 10 μM; CHO K1 cells with B1R gene of rats; agonist Des-Arg9-bradykinin 100 nM; compared to maximum achievable inhibition
MEASURED PROPERTY: inhibition at 10 µM (%)
Please reply with the bare figure in % and do not write the unit itself.

q: Would you mind telling me what inhibition at 10 µM value was observed for CCCCC1c2ccc(CN(C)C)n2CCN1C(=O)COCCN(C)S(=O)(=O)c1cc(C)c(OC)c(C)c1C (centres unmarked) ?
a: 100

Further cases:
q: What value of measured inhibition at 10 µM is listed for COc1cc(C)c(S(=O)(=O)N(C)CCOCC(=O)N2CCn3c(CN4CCCCC4)ccc3C2c2ccccc2)c(C)c1C (centres unmarked) ?
a: 104

q: Tell me the measured inhibition at 10 µM of CCCC1c2cccn2CCN1C(=O)COCCN(C)S(=O)(=O)c1c(C)cc(OC)cc1C (centres unmarked) , please.
a: 103

q: Given the molecule CCC1c2ccc(C)n2CCN1C(=O)COCCN(CC(C)C)S(=O)(=O)c1c(C)cc(OC)c(C)c1C (centres unmarked) , what is its reported inhibition at 10 µM?
a: 102

q: Which inhibition at 10 µM value is on record for COc1cc(C)c(S(=O)(=O)N(CCOCC(=O)N2CCn3c(CN4CCOCC4)ccc3C2c2ccccc2)CC(C)C)c(C)c1C (centres unmarked) ?
a: 102

q: inhibition at 10 µM for COc1cc(C)c(S(=O)(=O)N(CCOCC(=O)N2CCn3c(CN(C)C)ccc3C2c2cccs2)Cc2ccccc2)c(C)c1C (centres unmarked) ?
a: 102

----------
Molecular target: B1R receptor of rats (rB1R) (Rattus norvegicus, UniProt P97583)
Construct: host or cells: CHO K1 cells
Experiment: FLIPR Ca2+ assay on rat bradykinin 1 receptor (CHO K1 rB1R cells)
Type: cell-based
Conditions: test substance 10 μM; CHO K1 cells with B1R gene of rats; agonist Des-Arg9-bradykinin 100 nM; compared to maximum achievable inhibition
MEASURED PROPERTY: inhibition at 10 µM

q: API: value(readout= inhibition at 10 µM, system= B1R receptor of rats (rB1R) (Rattus norvegicus, UniProt P97583), query= Cc1cc(C)c(S(=O)(=O)N(C)CCOCC(=O)N2CCn3cccc3C2c2ccc(C(C)(C)C)cc2)c(C)c1 (stereo not shown) [Example 78] )
a: 77%

----------
Target: human B1R receptor (hB1R) (Homo sapiens)
Construct: host or cells: CHO K1 cells
Sequence (P46663 1-353): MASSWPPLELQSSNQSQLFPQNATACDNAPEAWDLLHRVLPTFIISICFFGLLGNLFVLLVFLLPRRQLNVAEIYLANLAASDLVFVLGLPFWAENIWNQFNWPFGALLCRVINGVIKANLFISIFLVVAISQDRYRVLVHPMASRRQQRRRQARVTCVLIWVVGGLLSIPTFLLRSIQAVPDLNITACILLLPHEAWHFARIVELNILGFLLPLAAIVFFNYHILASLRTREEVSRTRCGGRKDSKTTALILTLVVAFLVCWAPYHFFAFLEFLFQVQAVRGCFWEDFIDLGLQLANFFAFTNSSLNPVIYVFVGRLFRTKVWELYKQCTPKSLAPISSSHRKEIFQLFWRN
Assay: FLIPR Ca2+ assay on human bradykinin 1 receptor (CHO K1 hB1R cells)
Format: cell-based
Conditions: test substance 10 μM; CHO K1 cells with human B1R gene; agonist Lys-Des-Arg9-bradykinin 0.5 nM; compared to maximum achievable inhibition
Each entry below lists one item and its recorded inhibition at 10 µM value.
# output: bare number, implied unit %

# count of solved cases: 6
q: What measured inhibition at 10 µM is associated with COc1cc(C)c(S(=O)(=O)N(C)CCOCC(=O)N2CCn3cccc3C2CCc2ccccc2)c(C)c1 (centres unmarked) on human B1R receptor (hB1R) (Homo sapiens)?
a: 105

q: Give human B1R receptor (hB1R) (Homo sapiens) inhibition at 10 µM for Cc1cc(C)c(S(=O)(=O)N(C)CCOCC(=O)N2CCn3cccc3C2c2cccs2)c(C)c1 (centres unmarked)
a: 99

q: Lab request: please report inhibition at 10 µM under test system human B1R receptor (hB1R) (Homo sapiens) for COc1cc(C)c(S(=O)(=O)N(C)CCOCC(=O)N2CCn3cccc3C2c2ccccc2)c(C)c1C (centres unmarked)
a: 101

q: # query: inhibition at 10 µM | item COc1cc(C)c(S(=O)(=O)N(CCOCC(=O)N2CCn3cccc3C2c2ccccc2)CC(C)C)c(C)c1C (centres unmarked) | system: human B1R receptor (hB1R) (Homo sapiens)
a: 47

q: For human B1R receptor (hB1R) (Homo sapiens), provide inhibition at 10 µM of CCCCC1c2ccc(CN(C)C)n2CCN1C(=O)COCCN(C)S(=O)(=O)c1cc(C)c(OC)c(C)c1C (centres unmarked) please.
a: 100

q: Quick check: inhibition at 10 µM on human B1R receptor (hB1R) (Homo sapiens), item COc1cc(C)c(S(=O)(=O)N(C)CCOCC(=O)N2CCn3c(CN4CCCCC4)ccc3C2c2ccccc2)c(C)c1 (centres unmarked) ?
a: 104

Continuing:
q: Any idea what inhibition at 10 µM came out for COc1c(C)cc(S(=O)(=O)N(C)CCOCC(=O)N2CCn3c(CN4CCOCC4)ccc3C2c2ccccc2)c(C)c1C (centres unmarked) on human B1R receptor (hB1R) (Homo sapiens)?
a: 102

q: Reported inhibition at 10 µM for human B1R receptor (hB1R) (Homo sapiens), given COc1c(C)cc(S(=O)(=O)N(C)CCOCC(=O)N2CCn3cccc3C2c2cccnc2)c(C)c1C (centres unmarked) ?
a: 96

q: Give recorded inhibition at 10 µM with human B1R receptor (hB1R) (Homo sapiens) for the following molecule: COc1cc(C)c(S(=O)(=O)N(C)CCOCC(=O)N2CCn3cnnc3C2)c(C)c1
a: 43

q: Lookup: inhibition at 10 µM / human B1R receptor (hB1R) (Homo sapiens) / COc1cc(C)c(S(=O)(=O)N(C)CCOCC(=O)N2CCn3c(CN4CCOCC4)ccc3C2)c(C)c1
a: 101

q: Request body: readout inhibition at 10 µM, system human B1R receptor (hB1R) (Homo sapiens), query COc1cc(C)c(S(=O)(=O)N(CCOCC(=O)N2CCn3ccnc3C2)Cc2ccccc2)c(C)c1C . Return the value.
a: 33

q: Checklist item: inhibition at 10 µM tested on human B1R receptor (hB1R) (Homo sapiens), entry COc1cc(C)c(S(=O)(=O)N(CCOCC(=O)N2CCn3ccnc3C2)Cc2ccccc2)c(C)c1 , value?
a: 41

q: Reported inhibition at 10 µM for human B1R receptor (hB1R) (Homo sapiens), given Cc1cc(C)c(S(=O)(=O)N(C)CCOCC(=O)N2CCn3c(CN4CCOCC4)ccc3C2c2ccccc2)c(C)c1 (centres unmarked) ?
a: 103

q: Write down the reported inhibition at 10 µM of COc1cccc(C2c3cccn3CCN2C(=O)COCCN(C)S(=O)(=O)c2c(C)cc(OC)c(C)c2C)c1 (centres unmarked) , test system: human B1R receptor (hB1R) (Homo sapiens).
a: 100
